assayed system: CYP2C9 (Homo sapiens, UniProt P11712)
Sequence (P11712 whole entry): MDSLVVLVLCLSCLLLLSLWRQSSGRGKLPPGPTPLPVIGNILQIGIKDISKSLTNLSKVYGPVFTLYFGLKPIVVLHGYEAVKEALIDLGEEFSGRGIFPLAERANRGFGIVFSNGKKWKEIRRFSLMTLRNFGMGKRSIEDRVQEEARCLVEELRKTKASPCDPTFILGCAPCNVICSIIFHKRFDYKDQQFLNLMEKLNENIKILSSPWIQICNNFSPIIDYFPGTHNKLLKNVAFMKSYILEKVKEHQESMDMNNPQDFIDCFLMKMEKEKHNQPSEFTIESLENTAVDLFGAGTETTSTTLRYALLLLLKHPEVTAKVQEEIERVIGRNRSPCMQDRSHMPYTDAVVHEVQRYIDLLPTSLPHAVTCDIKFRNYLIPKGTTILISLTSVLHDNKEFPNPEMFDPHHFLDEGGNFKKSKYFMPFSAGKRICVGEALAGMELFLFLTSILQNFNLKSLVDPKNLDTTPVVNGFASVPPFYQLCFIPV
protocol details: CYP2C9 activity in upcyte hepatocytes after treatment (probe substrate cocktail)
Type: cell-based
Parameters: host or cells: upcyte hepatocytes 653-03 and 653-03 #138 (653-03 2D6)
condition label: human, probe tolbutamide 100 µM, 5 µM
measured attribute: inhibition at 72 h, 5 µM (%)
Write the number in % without appending the unit.

Input line: What does the record list as inhibition at 72 h, 5 µM for CC/C(=C(\c1ccc(O)cc1)c1ccc(OCCN)cc1)c1ccccc1 [Norendox, N-didesmethyl-4-hydroxytamoxifen] ?
Output line: 93

Input line: What does the record list as inhibition at 72 h, 5 µM for CC/C(=C(\c1ccc(O)cc1)c1ccc(OCCNC)cc1)c1ccccc1 [Endox, (Z)-endoxifen] ?
Output line: 63

* * *

Can you tell me IC50 at 15 min for the items I'm about to list?
assayed system: CYP2C19 (Homo sapiens)
Sequence (P33261 whole entry): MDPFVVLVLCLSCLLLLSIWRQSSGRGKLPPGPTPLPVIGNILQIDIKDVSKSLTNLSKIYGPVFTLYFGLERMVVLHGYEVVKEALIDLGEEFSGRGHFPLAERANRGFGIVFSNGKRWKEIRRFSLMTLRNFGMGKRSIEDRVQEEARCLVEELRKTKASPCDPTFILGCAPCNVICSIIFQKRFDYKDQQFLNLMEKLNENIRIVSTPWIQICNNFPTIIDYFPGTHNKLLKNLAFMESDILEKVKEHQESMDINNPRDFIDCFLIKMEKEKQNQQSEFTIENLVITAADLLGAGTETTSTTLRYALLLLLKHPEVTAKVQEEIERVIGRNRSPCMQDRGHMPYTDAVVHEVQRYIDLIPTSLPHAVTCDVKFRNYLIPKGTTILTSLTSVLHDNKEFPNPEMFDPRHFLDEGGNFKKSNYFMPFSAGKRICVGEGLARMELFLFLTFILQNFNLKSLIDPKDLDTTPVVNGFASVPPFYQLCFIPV
protocol details: Inhibition of CYP2C19 activity in HLM
Assay type: in vitro ADME
condition label: human, human liver microsomes, 200 nM to 10 µM, 10 min pre-incubation

Input line: What does the record list as IC50 at 15 min for CC/C(=C(\c1ccc(O)cc1)c1ccc(OCCNC)cc1)c1ccccc1 [Endox, (Z)-endoxifen] ?
Output line: > 10 µM

Input line: What does the record list as IC50 at 15 min for CC/C(=C(\c1ccc(O)cc1)c1ccc(OCCN(C)C)cc1)c1ccccc1 [4OH-Tam, (Z)-4-Hydroxytamoxifen] ?
Output line: > 10 µM

* * *

System: CYP2B6
protocol details: CYP2B6 activity in upcyte hepatocytes after treatment (probe substrate cocktail)
condition label: human, probe bupropion (25 µM)
measured attribute: EC50 at 72 h (nM)
Write the number in nM without appending the unit.

Input line: Provide value of EC50 at 72 h for this record tested with CYP2B6: CCC(=C(c1ccc(O)cc1)c1ccc(O)cc1)c1ccccc1 [Tam-Bis]
Output line: 187

* * *

System: CYP3A4
protocol details: CYP3A4 activity in upcyte hepatocytes after treatment (probe substrate cocktail)
condition label: human, probe atorvastatin (35 µM), EC50 of induction of CYP3A4 activity, upcyte hepatocytes, 72 h, 50 pM to 5 µM
measured attribute: EC50 at 72 h (nM)
Write the number in nM without appending the unit.

Input line: What does the record list as EC50 at 72 h for CCC(=C(c1ccccc1)c1ccc(O)cc1)c1ccccc1 [(E)-Met E, 4-[1,2-diphenylbut-1-en-1-yl]phenol] ?
Output line: 277

Input line: What does the record list as EC50 at 72 h for CCC(=C(c1ccc(O)cc1)c1ccc(O)cc1)c1ccccc1 ?
Output line: 178

* * *

assayed system: CYP2C8 (Homo sapiens, UniProt P10632)
protocol details: CYP2C8 activity in upcyte hepatocytes after treatment (probe substrate cocktail)
Format: cell-based
Design: host or cells: upcyte hepatocytes 653-03 and 653-03 #138 (653-03 2D6)
condition label: human, probe amodiaquine (5 µM), upcyte hepatocytes, 50 pM to 5 µM, read-out: EC50 of induction of CYP2C8 activity
measured attribute: EC50 at 72 h

Input line: What does the record list as EC50 at 72 h for CCC(=C(c1ccccc1)c1ccc(O)cc1)c1ccccc1 [(E)-Met E, 4-[1,2-diphenylbut-1-en-1-yl]phenol] ?
Output line: > 5 µM

* * *

measured attribute: pIC50
pIC50 is a log-scale quantity: -log10 of the concentration expressed in molar.

Input line: Provide value of pIC50 for this record tested with CYP2C9 (Homo sapiens, UniProt P11712): CC/C(=C(\c1ccc(O)cc1)c1ccc(OCCN)cc1)c1ccccc1 [Norendox, N-didesmethyl-4-hydroxytamoxifen]
Output line: 6.68

* * *

Tested on: CYP1A2
protocol details: CYP1A2 activity in upcyte hepatocytes after treatment (probe substrate cocktail)
condition label: read-out: EC50 of induction of CYP1A2 activity, 72 h, 50 pM to 5 µM
measured attribute: pEC50
pEC50 is a log-scale quantity: -log10 of the concentration expressed in molar.

Input line: What does the record list as pEC50 for CCC(=C(c1ccc(O)cc1)c1ccc(O)cc1)c1ccccc1 ?
Output line: 6.29

* * *

assayed system: CYP2C19 (Homo sapiens)
measured attribute: IC50
For clarity, give the value followed by its unit.

Input line: What does the record list as IC50 for CC/C(=C(\c1ccc(O)cc1)c1ccc(OCCN)cc1)c1ccccc1 [Norendox, N-didesmethyl-4-hydroxytamoxifen] ?
Output line: 320 nM

* * *

Tested on: CYP3A4
protocol details: CYP3A4 activity in upcyte hepatocytes after treatment (probe substrate cocktail)
condition label: read-out: EC50 of induction of CYP3A4 activity; upcyte hepatocytes, 72 h, 50 pM to 5 µM
measured attribute: pEC50
pEC50 is a log-scale quantity: -log10 of the concentration expressed in molar.

Input line: Provide value of pEC50 for this record tested with CYP3A4: CCC(=C(c1ccccc1)c1ccc(O)cc1)c1ccccc1 [(Z)-Met E, 4-[1,2-diphenylbut-1-en-1-yl]phenol]
Output line: 6.51

* * *

System: CYP2B6
protocol details: CYP2B6 activity in upcyte hepatocytes after treatment (probe substrate cocktail)
condition label: read-out: EC50 of induction of CYP2B6 activity; upcyte hepatocytes, 72 h, 50 pM to 5 µM
measured attribute: EC50

Input line: What does the record list as EC50 for CCC(=C(c1ccccc1)c1ccc(O)cc1)c1ccccc1 [(Z)-Met E, 4-[1,2-diphenylbut-1-en-1-yl]phenol] ?
Output line: > 5 µM

* * *

assayed system: CYP2C8 (Homo sapiens)
Sequence (P10632 1-490): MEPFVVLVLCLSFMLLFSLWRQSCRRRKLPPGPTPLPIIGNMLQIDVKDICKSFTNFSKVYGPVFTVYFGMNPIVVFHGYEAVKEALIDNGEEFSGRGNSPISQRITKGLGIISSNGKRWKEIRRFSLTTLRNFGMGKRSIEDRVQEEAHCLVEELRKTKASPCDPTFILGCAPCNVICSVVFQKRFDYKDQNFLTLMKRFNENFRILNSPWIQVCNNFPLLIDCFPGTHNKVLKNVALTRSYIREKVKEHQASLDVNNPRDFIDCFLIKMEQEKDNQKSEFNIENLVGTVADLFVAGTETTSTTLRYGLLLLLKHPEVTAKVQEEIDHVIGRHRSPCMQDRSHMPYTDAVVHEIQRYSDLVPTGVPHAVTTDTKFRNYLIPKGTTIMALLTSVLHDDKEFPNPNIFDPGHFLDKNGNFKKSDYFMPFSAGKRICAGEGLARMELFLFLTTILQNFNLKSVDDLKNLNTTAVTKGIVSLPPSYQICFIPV
measured attribute: pIC50
pIC50 is a log-scale quantity: -log10 of the concentration expressed in molar.

Input line: What does the record list as pIC50 for CC/C(=C(\c1ccc(O)cc1)c1ccc(OCCN)cc1)c1ccccc1 [Norendox, N-didesmethyl-4-hydroxytamoxifen] ?
Output line: 5.62

Input line: What does the record list as pIC50 for CC/C(=C(\c1ccc(O)cc1)c1ccc(OCCNC)cc1)c1ccccc1 [Endox, (Z)-endoxifen] ?
Output line: 5.09

* * *

assayed system: CYP2C19 (Homo sapiens)
protocol details: CYP2C19 activity in upcyte hepatocytes after treatment (probe substrate cocktail)
Assay type: cell-based
Set-up: host or cells: upcyte hepatocytes 653-03 and 653-03 #138 (653-03 2D6)
condition label: upcyte hepatocytes, 72 h, 50 pM to 5 µM; read-out: EC50 of induction of CYP2C19 activity
measured attribute: pEC50
pEC50 is a log-scale quantity: -log10 of the concentration expressed in molar.

Input line: What does the record list as pEC50 for CCC(=C(c1ccc(O)cc1)c1ccc(O)cc1)c1ccccc1 ?
Output line: 7.52

* * *

assayed system: CYP2C9 (Homo sapiens, UniProt P11712)
protocol details: CYP2C9 activity in upcyte hepatocytes after treatment (probe substrate cocktail)
condition label: upcyte hepatocytes, 72 h, 50 pM to 5 µM; read-out: EC50 of induction of CYP2C9 activity
Description: Cells were cultivated in hepatocyte culture medium at 37 °C and 5 °% CO2 in a humidified incubator. […] In HLM and supersome™ incubations the formation rate is given as nmol µg^−1 min^−1 and fmol pmol^−1 min^−1, respectively, and was calculated as the mean ± SD. […] In induction and inhibition experiments corresponding EC50 and IC50 values were calculated by nonlinear regression. […]
measured attribute: pEC50
pEC50 is a log-scale quantity: -log10 of the concentration expressed in molar.

Input line: What does the record list as pEC50 for CCC(=C(c1ccc(O)cc1)c1ccc(O)cc1)c1ccccc1 ?
Output line: 6.31

* * *

assayed system: CYP2C9 (Homo sapiens)
protocol details: Inhibition of CYP2C9 activity in HLM
Assay type: in vitro ADME
condition label: human, human liver microsomes, 200 nM to 10 µM, 10 min pre-incubation
measured attribute: IC50 at 15 min

Input line: What does the record list as IC50 at 15 min for CC/C(=C(\c1ccc(O)cc1)c1ccc(OCCN(C)C)cc1)c1ccccc1 [4OH-Tam, (Z)-4-Hydroxytamoxifen] ?
Output line: > 10 µM

* * *

assayed system: CYP2C8 (Homo sapiens)
protocol details: CYP2C8 activity in upcyte hepatocytes after treatment (probe substrate cocktail)
Type: cell-based
Set-up: host or cells: upcyte hepatocytes 653-03 and 653-03 #138 (653-03 2D6)
condition label: human, upcyte hepatocytes 653-03 and 653-03 2D6, probe amodiaquine 5 µM, 5 µM, both cell lines
measured attribute: inhibition at 72 h, 5 µM

Input line: What does the record list as inhibition at 72 h, 5 µM for CC/C(=C(\c1ccc(O)cc1)c1ccc(OCCNC)cc1)c1ccccc1 [Endox, (Z)-endoxifen] ?
Output line: ≤ 90%

Input line: What does the record list as inhibition at 72 h, 5 µM for CC/C(=C(\c1ccc(O)cc1)c1ccc(OCCN(C)C)cc1)c1ccccc1 [4OH-Tam, (Z)-4-Hydroxytamoxifen] ?
Output line: ≤ 90%

Input line: What does the record list as inhibition at 72 h, 5 µM for CC/C(=C(\c1ccc(O)cc1)c1ccc(OCCN)cc1)c1ccccc1 [Norendox, N-didesmethyl-4-hydroxytamoxifen] ?
Output line: 62.5%
